- measured_on: ZnF(1-2-3)-BRCT PARP1 (Homo sapiens, UniProt P09874 1-494)
- Sequence (P09874 1-494): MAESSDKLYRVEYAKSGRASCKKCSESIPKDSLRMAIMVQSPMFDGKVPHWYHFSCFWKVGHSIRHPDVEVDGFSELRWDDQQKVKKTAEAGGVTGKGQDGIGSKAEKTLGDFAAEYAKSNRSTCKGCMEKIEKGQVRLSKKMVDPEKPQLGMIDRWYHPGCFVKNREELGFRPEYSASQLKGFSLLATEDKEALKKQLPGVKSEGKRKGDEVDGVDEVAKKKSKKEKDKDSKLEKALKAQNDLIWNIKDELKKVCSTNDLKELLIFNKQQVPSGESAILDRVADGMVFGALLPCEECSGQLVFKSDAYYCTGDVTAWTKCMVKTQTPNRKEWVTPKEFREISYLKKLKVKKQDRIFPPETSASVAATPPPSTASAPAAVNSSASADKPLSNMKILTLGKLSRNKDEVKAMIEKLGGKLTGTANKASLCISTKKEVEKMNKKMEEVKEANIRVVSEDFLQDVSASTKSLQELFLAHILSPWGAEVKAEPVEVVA
- assay: fluorescence polarization
assay_metric: Kd

[[record]]
binder = "GCTGGCTTCGTAAGAAGCCAGCTCGCGGTCAGCTTGCTGACCGCG (structured_DNA, 5'-phosphate (printed for unlabelled oligo)) [SSB DNA dumbbell 45-mer (5-FAM labelled)]"
reported = "~70 nM"

[[record]]
binder = "DSB DNA (5-FAM labelled) (dsDNA) DNA 1: GCCTACCGGTTCGAATGGCAGC DNA 2: GCTGCCATTCGAACCGGTAGGC"
reported = "~88 nM"

